Test system: RXRa homodimer (NR concentration 180 nM)
Assay: PBM binding z-score (relative to random genomic background probes); higher = stronger binding; sequences stand for … in GC…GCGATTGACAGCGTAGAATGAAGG
PBM binding z-score values, listed per item

# count of solved cases: 3
record_sequence=TTACCAAGGTGAGCTGAGGACGTTGATCCAACTC reported_result=-0.041
record_sequence=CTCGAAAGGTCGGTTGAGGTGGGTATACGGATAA reported_result=1.86
record_sequence=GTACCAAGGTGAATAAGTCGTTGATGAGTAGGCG reported_result=0.742

Ask: Lookup: PBM binding z-score / RXRa homodimer (NR concentration 180 nM) / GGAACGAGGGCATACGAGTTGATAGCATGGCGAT
Reply: 1.02

Ask: Item: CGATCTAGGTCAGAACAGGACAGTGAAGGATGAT Test system: RXRa homodimer (NR concentration 180 nM) Read-out: PBM binding z-score Value: ?
Reply: 0.982

* * *

Test system: PPARg:RXRa 270nM:90nM, anti-RXR (NR concentration 270 nM, RXRa partner concentration 90 nM)
Experiment: PBM binding z-score (relative to random genomic background probes); higher = stronger binding; sequences stand for … in GC…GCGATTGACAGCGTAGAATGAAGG
Group membership follows PBM binding z-score per the scheme small value: < 2; mid value: ≥ 2 and < 3; large value: ≥ 3

Before answering, review these 8 worked examples.
record_sequence=TTATATAGGTAAATGCTAGGTGAAAGTCCGATCT cat="mid value"
record_sequence=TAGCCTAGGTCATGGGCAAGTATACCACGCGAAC cat="large value"
record_sequence=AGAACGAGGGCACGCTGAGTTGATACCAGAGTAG cat="small value"
record_sequence=ACTACAGGGTCATCGTAGGCCAGAGTACGCACAG cat="large value"
record_sequence=TCTTGTAGATCAGCAGGTTAAGAGAGCTGGCCAA cat="small value"
record_sequence=ATCTCTGGGTAAAGATAGTTCAGTGAATGCAAAT cat="small value"
record_sequence=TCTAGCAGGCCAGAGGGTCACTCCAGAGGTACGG cat="mid value"
record_sequence=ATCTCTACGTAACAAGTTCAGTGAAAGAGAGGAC cat="small value"

Consider the additional sequence presented here.
Ask: Place this sequence in its band: CCAGACAGGTAAGAAGGTAACTCAGCCTCGATTA
Reply: small value

* * *

System: THRa:RXRa (NR concentration 90 nM, RXRa partner concentration 90 nM)
Assay: PBM binding z-score (relative to random genomic background probes); higher = stronger binding; sequences stand for … in GC…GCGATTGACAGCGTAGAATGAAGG
RECORDED_METRIC: PBM binding z-score
Answer using only a numeral; do not append any unit.

record_sequence=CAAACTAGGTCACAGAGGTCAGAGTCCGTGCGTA recorded_metric="PBM binding z-score" reported_result=4.37
record_sequence=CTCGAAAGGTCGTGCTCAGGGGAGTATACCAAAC recorded_metric="PBM binding z-score" reported_result=2.77
record_sequence=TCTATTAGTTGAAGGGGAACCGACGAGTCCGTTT recorded_metric="PBM binding z-score" reported_result=0.226
record_sequence=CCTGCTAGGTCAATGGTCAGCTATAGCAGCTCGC recorded_metric="PBM binding z-score" reported_result=2.26
record_sequence=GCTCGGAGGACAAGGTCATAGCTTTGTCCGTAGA recorded_metric="PBM binding z-score" reported_result=3.56

Ask: Reported PBM binding z-score for THRa:RXRa (NR concentration 90 nM, RXRa partner concentration 90 nM), given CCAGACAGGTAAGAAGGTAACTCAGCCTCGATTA ?
Reply: 0.0122

Ask: // map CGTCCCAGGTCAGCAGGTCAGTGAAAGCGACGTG to recorded PBM binding z-score (system: THRa:RXRa (NR concentration 90 nM, RXRa partner concentration 90 nM))
Reply: 3.56

Ask: PBM binding z-score of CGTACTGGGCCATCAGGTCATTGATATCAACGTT on THRa:RXRa (NR concentration 90 nM, RXRa partner concentration 90 nM)?
Reply: 3.17

Ask: Param readout= PBM binding z-score; system= THRa:RXRa (NR concentration 90 nM, RXRa partner concentration 90 nM); entry= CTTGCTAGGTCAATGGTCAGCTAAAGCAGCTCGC ; returns value.
Reply: 2.13

// provenance: the supplement of paper PMC6555819
